Tested on: Inhibin beta A chain (activin A)
assay remarks: INHBA (activin A) binders on microarrays, primary screen, biochemical, small-molecule microarray, 635 nm fluorescence scan (AID 1107);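 also: mouse activin A protein probed at 4.33 µg/mL on printed slides; score merges bound-protein fluorescence near 667 nm with spot signal-to-noise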
condition notes: small-molecule microarray binding, higher = more signal
Please respond with reported composite z-score for every item in the list.
Give bare numbers.

Past entries and their recorded results:
compound	test target	meas value
COCCOC(=O)N1C(=O)[C@@]2(c3ccccc31)[C@H](c1ccc(OCCO)cc1)N1[C@H](c3ccccc3)[C@H](c3ccccc3)OC(=O)[C@H]1[C@@H]2C(=O)N1CCN(c2ncccn2)CC1	Inhibin beta A chain (activin A)	0.943
CCCC[C@H]1OB(O)C[C@H]2C1=C(C)C[C@H]1C(=O)C=CC(=O)[C@H]12	Inhibin beta A chain (activin A)	0.852
CCCC[C@@H]1C[C@H]1[C@@H](NC(=O)Cc1ccccc1)c1ccc(Cl)cc1	Inhibin beta A chain (activin A)	0.674
COCCOC(=O)N1C(=O)[C@@]2(c3cc(C#Cc4ccc(OC)cc4)ccc31)[C@H](C(=O)Nc1nc3ccccc3s1)[C@H]1C(=O)O[C@H](c3ccccc3)[C@H](c3ccccc3)N1[C@@H]2c1ccccc1OCCO	Inhibin beta A chain (activin A)	0.629
O=C1OCCC/C=C\[C@H]2OC34C=CCN(Cc5ccccc5)C(=O)[C@H]3N(CCCCCO)C(=O)[C@@H]4C12 (stereo partly specified)	Inhibin beta A chain (activin A)	0.933

Batch lookup, composite z-score per entry.
1. CC(C)CNC(=O)[C@@H]1c2ccccc2C(=O)N(Cc2ccccc2Cl)[C@H]1c1ccc(CO)cc1
2. C=CCC(OC(C)=O)[C@@H]1[C@@H](N(Cc2ccc(-c3ccccc3)cc2)C(=O)c2ccc(C)cc2)c2cc(OCCCO)ccc2N1C(=O)c1ccc2ccccc2c1 (stereo partly specified)
3. CC1CC/C=C\[C@H]2OC34C=CCN(CCN5CCOCC5)C(=O)[C@H]3N(CCCCCCO)C(=O)[C@@H]4C2C(=O)O1 (stereo partly specified)
4. COC(=O)C1(CC(C)C)C=C2C(=C(C(C)C)C(=O)C2C)CN1 (stereo unspecified)
5. N[C@@H](Cc1ccccc1)Cn1cc(C2(O)CCCCC2)nn1
6. CCC[C@@H]1C=C(C(=O)OCC)[C@H](c2ccccc2)N1S(=O)(=O)c1ccc(C)cc1

Reply text:
[-0.114, 0.944, 0.516, 1.34, -0.239, 0.789]

Batch lookup, composite z-score per entry.
1. COC(=O)C1=CC(CCCO)=CC(c2ccc(CN3CCCC3)cc2)N(Cc2sc3ccccc3c2Cl)C=C1C(=O)OC (stereo unspecified)
2. CN(C)C(=O)[C@@]1(CCS(=O)(=O)c2ccccc2)N=C(c2ccc(OCCCO)cc2)O[C@H]1c1ccccc1N=[N+]=[N-]
3. CN(C)C(=O)[C@]1(Cc2ccccc2CN=[N+]=[N-])N=C(c2ccc(OCCCO)cc2)O[C@@H]1c1ccccc1N=[N+]=[N-]
4. [N-]=[N+]=Nc1ccccc1[C@@H]1OC(c2ccc(OCCCO)cc2)=N[C@]1(Cc1ccccc1)C(N)=O
5. CCCCC(O)C1C=CC2C(=O)N(C)C(=O)C2N1Nc1ccccc1 (stereo unspecified)

Reply text:
0.375
0.786
0.814
0.982
1.24

* * *

assay remarks: basal 3T3-L1 adipocyte mitochondrial potential changes, profiling panel, cell-based, JC-1 fluorescence, 3T3-L1 adipocytes, 24 h, 100 nL compound (AID 1168); also: test concentration not given here
condition notes: JC-1 mitochondrial fluorescence, higher = more signal, called active from +8 up or from −8 down
# cutoff -0.3 applies to z-score; >= gives MET, < gives NOT MET

For orientation, consider the following solved cases.
compound	assigned class
COc1ccc(NC(=O)O[C@H]2[C@H](OC(=O)Nc3ccc4c(c3)OCO4)[C@H](OC(=O)Nc3ccc4c(c3)OCO4)[C@@H](OC)O[C@@H]2CO)cc1	MET
COC(=O)[C@@]1(Cc2ccccc2)[C@H]2c3cc(C(=O)N4CCCC4)n(Cc4ccc(C(F)(F)F)nc4)c3C[C@H]2CN1C(=O)c1ccccc1	NOT MET
C=CCC(OC(C)=O)[C@@H]1[C@@H](N(Cc2ccc(-c3cccc(C(F)(F)F)c3)o2)C(=O)c2cccc3ccccc23)c2cc(OCCCO)ccc2N1C(=O)c1ccc2ccccc2c1 (some centres undefined)	NOT MET
COCCOC(=O)N1C(=O)[C@@]2(c3ccccc31)[C@H](C(N)=O)[C@H]1C(=O)O[C@H](c3ccccc3)[C@H](c3ccccc3)N1[C@@H]2c1ccc(OCCO)cc1	MET
Cc1c(-c2ccc(-c3ccc(Cl)c(Cl)c3)o2)nc(-c2ccccc2)c2c1CO[Si]2(C(C)C)C(C)C	NOT MET
COCCOC(=O)N1C(=O)[C@@]2(c3cc(C#CC4=CCCCC4)ccc31)[C@H](c1ccc(OCCO)cc1)N1[C@H](c3ccccc3)[C@H](c3ccccc3)OC(=O)[C@H]1[C@@H]2C(=O)N1CCCCCCC1	NOT MET

Inquiry: Answer whether z-score of O=C1C2C=CC(C(O)c3cccc(O)c3)N(Nc3ccccc3F)C2C(=O)N1c1ccccc1 (centres undefined) is greater than or equal to -0.3.
Reply text: NOT MET

Inquiry: Answer whether z-score of C[N+](C)(C)CCCCCCNC(=O)[C@H]1C[C@H]2C(=O)NCC(=O)N2[C@H]1c1cccc(OCCO)c1 is greater than or equal to -0.3.
Reply text: NOT MET

Inquiry: Answer whether z-score of C#CCN(C/C=C/c1ccccc1)[C@H](CO[Si](C)(C)C(C)(C)C)c1ccccc1 is greater than or equal to -0.3.
Reply text: MET
